This collection of values is drawn from patent US20220112288A1.

- TEST_SYSTEM: T1, human CD4 on human PBMCs (human, UniProt P01730 26-458)
- T1 construct: whole, on cells; also called hCD4
- TEST_DETAILS: FACS, clonal hybridoma supernatant on PBMCs
Reported gMFI of CD4+ values are given for each entry in this list.
Report only the number, with the unit gMFI understood.

BINDER	OUTCOME_MEASURE	ENDPOINT_RESULT
75110_08G08A (antibody, V domains shown) VH: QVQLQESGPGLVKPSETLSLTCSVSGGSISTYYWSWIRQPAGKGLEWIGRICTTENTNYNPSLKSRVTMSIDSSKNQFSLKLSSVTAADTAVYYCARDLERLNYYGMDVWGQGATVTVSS VL: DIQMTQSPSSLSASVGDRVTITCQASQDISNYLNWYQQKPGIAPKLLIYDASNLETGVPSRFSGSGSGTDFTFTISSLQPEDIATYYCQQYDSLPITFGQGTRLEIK	gMFI of CD4+	324000

Exam item: Any idea what gMFI of CD4+ was measured for 75110_08D24A (antibody, V domains shown) VH: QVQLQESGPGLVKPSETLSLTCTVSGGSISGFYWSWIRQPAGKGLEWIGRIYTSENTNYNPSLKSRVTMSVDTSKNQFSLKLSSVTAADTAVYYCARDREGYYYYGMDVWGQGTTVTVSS VL: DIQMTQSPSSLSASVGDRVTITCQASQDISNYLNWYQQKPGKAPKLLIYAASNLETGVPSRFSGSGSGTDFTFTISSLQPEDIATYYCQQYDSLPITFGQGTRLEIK ?
Marked response: 332000

Exam item: Any idea what gMFI of CD4+ was measured for 75110_08A13A (antibody, V domains shown) VH: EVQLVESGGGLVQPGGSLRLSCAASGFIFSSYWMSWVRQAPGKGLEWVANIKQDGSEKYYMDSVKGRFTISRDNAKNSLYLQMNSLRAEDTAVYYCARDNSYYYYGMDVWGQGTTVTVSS VL: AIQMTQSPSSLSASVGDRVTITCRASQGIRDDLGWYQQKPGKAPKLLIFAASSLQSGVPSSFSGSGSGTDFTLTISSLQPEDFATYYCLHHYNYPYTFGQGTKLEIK ?
Marked response: 140000
